Target or system UniProt C4Q8W8; recorded quantity IC50.
Sequence (C4Q8W8 1-497): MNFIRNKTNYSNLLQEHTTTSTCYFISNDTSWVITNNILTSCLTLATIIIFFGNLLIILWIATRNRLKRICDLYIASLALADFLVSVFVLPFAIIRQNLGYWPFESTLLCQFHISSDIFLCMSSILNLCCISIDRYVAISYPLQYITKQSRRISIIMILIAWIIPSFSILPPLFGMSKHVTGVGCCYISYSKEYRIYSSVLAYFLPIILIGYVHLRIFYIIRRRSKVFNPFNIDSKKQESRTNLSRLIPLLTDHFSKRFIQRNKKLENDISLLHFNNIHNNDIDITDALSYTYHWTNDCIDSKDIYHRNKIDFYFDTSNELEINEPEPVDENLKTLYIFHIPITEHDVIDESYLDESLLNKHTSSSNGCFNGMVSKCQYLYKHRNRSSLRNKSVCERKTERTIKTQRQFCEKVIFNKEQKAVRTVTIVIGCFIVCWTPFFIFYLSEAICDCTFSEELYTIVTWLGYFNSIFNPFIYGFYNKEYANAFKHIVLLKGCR
Readout kind: IC50 (µM)

Compound: CC(CN1c2ccccc2Sc2ccccc21)N(C)C (centres unmarked)
Readout kind: IC50
Recorded result: 28
--
Compound: OCCN1CCN(CCC=C2c3ccccc3Sc3ccc(C(F)(F)F)cc32)CC1
Readout kind: IC50
Recorded result: 3.9

###

system: S. mansoni schistosomula; assay: Motor activity of schistosomula in culture (frequency of body length changes); type: cell-based, Schistosoma mansoni; conditions: 50 µM, compared to untreated larvae
Readout kind: effect on motor activity of schistosomula

Compound: CNCCc1ccc(O)c(O)c1 [epinine]
Recorded result: decrease in motility
//
Compound: NCCc1ccc(O)c(O)c1 [dopamine]
Recorded result: decrease in motility
